Listed compounds paired with reported viability at 24 h, 40 µM
Experiment: Cytotoxicity against mouse RAW264.7 cells assessed as cell viability at 40 uM incubated for 24 hrs by MTT assay relative to control
Assay type: toxicity, cell-based
Conditions: read-out: Activity

| Substance smiles | viability at 24 h, 40 µM |
| --- | --- |
| CC1(C)CC[C@]2(C(=O)OCc3ccccc3)CC[C@]3(C)C(=CC[C@@H]4[C@@]5(C)CCC(=O)[C@@](C)(COC(=O)CCc6ccccc6)[C@@H]5CC[C@]43C)[C@@H]2C1 | 76.1% |
| CC1(C)CC[C@]2(C(=O)OCc3ccccc3)CC[C@]3(C)C(=CC[C@@H]4[C@@]5(C)C/C(=C/c6ccccc6)C(=O)[C@@](C)(CO)[C@@H]5CC[C@]43C)[C@@H]2C1 | 68.1% |
| CC1(C)CC[C@]2(C(=O)OCc3ccccc3)CC[C@]3(C)C(=CC[C@@H]4[C@@]5(C)C/C(=C/c6ccsc6)C(=O)[C@@](C)(CO)[C@@H]5CC[C@]43C)[C@@H]2C1 | 66.9% |
| CC1(C)CC[C@]2(C(=O)OCc3ccccc3)CC[C@]3(C)C(=CC[C@@H]4[C@@]5(C)C/C(=C/c6ccccc6[N+](=O)[O-])C(=O)[C@@](C)(CO)[C@@H]5CC[C@]43C)[C@@H]2C1 | 65% |
| CC1(C)CC[C@]2(C(=O)OCc3ccccc3)CC[C@]3(C)C(=CC[C@@H]4[C@@]5(C)CCC(=O)[C@@](C)(COC(=O)CCC6CCCC6)[C@@H]5CC[C@]43C)[C@@H]2C1 | 105% |

---

Test: Cytotoxicity against mouse RAW264.7 cells assessed as cell viability at 40 uM incubated for 24 hrs by MTT assay relative to control
Format: toxicity, cell-based
Conditions: read-out: Activity
Rule for this label: Criterion met means viability at 24 h, 40 µM is less than 80%; Criterion not met means viability at 24 h, 40 µM is at least 80%.

| Substance smiles | Class assignment |
| --- | --- |
| CC1(C)CC[C@]2(C(=O)OCc3ccccc3)CC[C@]3(C)C(=CC[C@@H]4[C@@]5(C)C/C(=C/c6cncs6)C(=O)[C@@](C)(CO)[C@@H]5CC[C@]43C)[C@@H]2C1 | Criterion met |
| CC1(C)CC[C@]2(C(=O)O)CC[C@]3(C)C(=CC[C@@H]4[C@@]5(C)CCC(=O)[C@@](C)(CO)[C@@H]5CC[C@]43C)[C@@H]2C1 | Criterion not met |
| CC1(C)CC[C@]2(C(=O)OCc3ccccc3)CC[C@]3(C)C(=CC[C@@H]4[C@@]5(C)CCC(=O)[C@@](C)(COC(=O)CCC6CCCCC6)[C@@H]5CC[C@]43C)[C@@H]2C1 | Criterion not met |
| CC1(C)CC[C@]2(C(=O)OCc3ccccc3)CC[C@]3(C)C(=CC[C@@H]4[C@@]5(C)C/C(=C/c6cccs6)C(=O)[C@@](C)(CO)[C@@H]5CC[C@]43C)[C@@H]2C1 | Criterion met |
| CC1(C)CC[C@]2(C(=O)OCc3ccccc3)CC[C@]3(C)C(=CC[C@@H]4[C@@]5(C)C/C(=C/c6nccs6)C(=O)[C@@](C)(CO)[C@@H]5CC[C@]43C)[C@@H]2C1 | Criterion met |
| CC[C@H](C)[C@H](NC(=O)CCCC[C@@H]1CCSS1)C(=O)OC[C@]1(C)C(=O)CC[C@@]2(C)[C@H]1CC[C@]1(C)[C@@H]2CC=C2[C@@H]3CC(C)(C)CC[C@]3(C(=O)OCc3ccccc3)CC[C@]21C | Criterion not met |
| CC1(C)CC[C@]2(C(=O)OCc3ccccc3)CC[C@]3(C)C(=CC[C@@H]4[C@@]5(C)CCC(=O)[C@@](C)(COC(=O)CCc6c[nH]c7ccccc67)[C@@H]5CC[C@]43C)[C@@H]2C1 | Criterion not met |
| CC1(C)CC[C@]2(C(=O)OCc3ccccc3)CC[C@]3(C)C(=CC[C@@H]4[C@@]5(C)CCC(=O)[C@@](C)(COC(=O)CCCCNC(=O)CCCC[C@@H]6CCSS6)[C@@H]5CC[C@]43C)[C@@H]2C1 | Criterion met |
| COCC(=O)OC[C@]1(C)C(=O)CC[C@@]2(C)[C@H]1CC[C@]1(C)[C@@H]2CC=C2[C@@H]3CC(C)(C)CC[C@]3(C(=O)OCc3ccccc3)CC[C@]21C | Criterion not met |

---

Listed compounds paired with reported Activity
Tested on: RAW264.7
Experiment: Anti-inflammatory activity against LPS-induced mouse RAW264.7 cells assessed as inhibition of NO production at 10 uM preincubated for 2 hrs followed by LPS addition and measured after 24 hrs by Griess reagent-based microplate reader analysis relative to control
Assay type: functional
Design: scale not given: the % may be the effect or the level left
Details: time 26 hrs
Reported metric: Activity (%)

| Substance smiles | Tested on | Reported metric | Measurement |
| --- | --- | --- | --- |
| CC1(C)CC[C@]2(C(=O)OCc3ccccc3)CC[C@]3(C)C(=CC[C@@H]4[C@@]5(C)CCC(=O)[C@@](C)(COC(=O)c6cc7ccccc7[nH]6)[C@@H]5CC[C@]43C)[C@@H]2C1 | RAW264.7 | Activity | 22.29 |
| CC1(C)CC[C@]2(C(=O)OCc3ccccc3)CC[C@]3(C)C(=CC[C@@H]4[C@@]5(C)CCC(=O)[C@@](C)(COC(=O)CCCC[C@@H]6CCSS6)[C@@H]5CC[C@]43C)[C@@H]2C1 | RAW264.7 | Activity | 29.81 |
| CC1(C)CC[C@]2(C(=O)OCc3ccccc3)CC[C@]3(C)C(=CC[C@@H]4[C@@]5(C)CCC(=O)[C@@](C)(COC(=O)CCC6CCCCC6)[C@@H]5CC[C@]43C)[C@@H]2C1 | RAW264.7 | Activity | 0.64 |
